B1: library; a variant is named by its letters at N, in order (parent)
chain: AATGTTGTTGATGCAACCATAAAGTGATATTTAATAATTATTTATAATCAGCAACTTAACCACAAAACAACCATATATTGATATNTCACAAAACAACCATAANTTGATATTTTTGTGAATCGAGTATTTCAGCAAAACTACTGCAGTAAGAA

variants of: B1; assay: relative integration efficiency (T-LR orientation) vs wild-type transposon end (log2 (normalized fold change)); transposon end mutated: left end; higher = more efficient transposition; details: with VchCAST RNA-guided transposition machinery (E. coli BL21(DE3) host, lacZ target)
Metric name: relative integration efficiency (log2)
Provide a numeric answer; units are not to be included.

Fill in the blank: the reported relative integration efficiency (log2) of CG T32A is ____.
0.415

relative integration efficiency (log2) for CG A16G ?
-0.395

Consider the variant shown here: CG C52G A53T A54T C55G What is its recorded relative integration efficiency (log2)?
0.133

What value of relative integration efficiency (log2) has been reported for the following variant? CG T32A T86A T112A
0.255

What does the record list as relative integration efficiency (log2) for TG A22T G24T T31C A33C T76A T78A T84A C87A ?
-0.618

Can you share its relative integration efficiency (log2)? I mean this variant: CG C55G
0.245

Which relative integration efficiency (log2) is listed for TA A70C T76A T86G T104G T113A ?
0.359

State the recorded relative integration efficiency (log2) for this entry: TA T76A T78A T84A C87A A102T T111C T113C
-0.0132

So what does the record say about relative integration efficiency (log2) for CG T110G T111G ?
-1.08

If you can, please state the reported relative integration efficiency (log2) value of CG A21G .
-0.166

// query relative integration efficiency (log2) value for entry CG A27C T28G
-0.919

Give its relative integration efficiency (log2) value. Item: TA G24A T30A T76A T78G C87A A96C T110A T113A
0.291

Endpoint output: relative integration efficiency (log2) of CT A23C G24T A77C T78G T104G . Value?
-0.239

Which value of relative integration efficiency (log2) has been reported for CG T74G in the records?
-1.2

Query: relative integration efficiency (log2); subject: TA T76A T78G C87A T104A T110A T113A
0.215

Look up relative integration efficiency (log2): CG T43C
-0.00723

Consider the variant shown here: CC A102T T104A T105A What is its recorded relative integration efficiency (log2)?
-0.708

What does the record list as relative integration efficiency (log2) for CG C49A A50C G51T C52A ?
-1.02

Requested field: relative integration efficiency (log2). Item: CG A1T A2T G4T T5G
-0.165

For the variant TA T76A A77G C87T T104G T113A , what relative integration efficiency (log2) is on record?
0.151

Query (variant): CG C60A C61A ; field requested: relative integration efficiency (log2)
0.547

I would be grateful if you could share the reported relative integration efficiency (log2) for CG T113G T114G G115T T116G G117T A118C A119C T120G C121A G122T A123C G124T T125G .
-0.192

Requested read-out: relative integration efficiency (log2). Entry: CG A53C
-0.195

Entry CG G13C : reported relative integration efficiency (log2) = ?
-0.392

Tell me the measured relative integration efficiency (log2) of CG A34T A36G A37T T38G T39A A40G T41C T42G T43G T48C C49A , please.
-2.77

Quick one: relative integration efficiency (log2) for CG C98T ?
-0.0503

Name the reported relative integration efficiency (log2) value associated with the variant CG T116A G117C
0.431

Looking for the measured relative integration efficiency (log2) of CG A69C A70C , can you help?
-0.684

Any idea what its relative integration efficiency (log2) is? The variant is CG A62C C63A
-0.193

# input variant: CG G80T ; wanted: its relative integration efficiency (log2)
0.0932

Looking for the measured relative integration efficiency (log2) of CA A22T G24T T31C A33C A102T T111C T113C , can you help?
-0.528

Which measured relative integration efficiency (log2) value corresponds to CG T12A T30A T31C T32A A77C T86G ?
-0.709

GET /values?readout=relative integration efficiency (log2)&item= CG T113A T114A
-0.122

Fill blank: measured relative integration efficiency (log2) of the variant CG G24T T78G T104G is ____.
0.121

Any idea what relative integration efficiency (log2) was measured for CG C14A A15C A16C C17A ?
-1.81

Would you mind telling me what relative integration efficiency (log2) value was observed for TA A16C G24T T32G A33C T76A T78A T84A C87A A96C T112G T113C ?
-0.572

What value of relative integration efficiency (log2) has been reported for the following variant? CG A19T A73T A99T
-2.5

What does the data say about its relative integration efficiency (log2)? Entry: CG A23T
0.0168

What value of relative integration efficiency (log2) has been reported for the following variant? CG T39A A40T T41A T42A
0.453

relative integration efficiency (log2) for CG G80T A81C ?
-1.7

Form field: reported relative integration efficiency (log2) of CG A21C A22C A23C G24T
-0.914

Tell me the measured relative integration efficiency (log2) of CG C52T , please.
0.154

Tell me the measured relative integration efficiency (log2) of CG T78A , please.
-0.0877

What value of measured relative integration efficiency (log2) is listed for CA A22T G24T T31C A33C A96C T110A T113A ?
-0.837

// query relative integration efficiency (log2) value for entry CG T48A C49G
0.449

Reported relative integration efficiency (log2) for CG T41A : what is it?
-0.651

Values compiled from the supplement of paper PMC10201428.
